Tested on: 994946-033-R-J1-PDC complex spheroid viability
Assay: Anticancer human tumor 994946-033-R-J1-PDC patient-derived melanoma cell line growth inhibition [POLQ]
Settings: curve of first compound; second compound 0.1 µM
assay.metric: IC50

Some solved entries appear below for comparison.
molecule	result
CC(=O)O[C@H]1C(=O)[C@@]2(C)[C@H]([C@H](OC(=O)c3ccccc3)[C@]3(O)C[C@H](OC(=O)[C@H](O)[C@@H](NC(=O)c4ccccc4)c4ccccc4)C(C)=C1C3(C)C)[C@]1(OC(C)=O)CO[C@@H]1C[C@@H]2O + Cc1cccc(N(C)C(=O)C2C(O)CCN2c2nc(C)cc(C(F)(F)F)c2C#N)c1	< 0.00949 µM
CCc1cc2c(N3CCc4c(cc(Cn5ccnc5)cc4-c4cn(C)nc4C(F)(F)F)C3=O)ccnc2c(OC)n1 + Nc1ccc(C#CCN(C(=O)Cc2ncc(C(F)(F)F)cc2C(F)(F)F)c2ccc(F)cc2)nn1	> 10 µM

Now look at this entry.
State its IC50: O=C(Nc1ccc(O)c(NS(=O)(=O)c2ccc(F)cc2)c1)c1ccc(-c2ccccc2)cc1 + Cc1cccc(N(C)C(=O)C2C(O)CCN2c2nc(C)cc(C(F)(F)F)c2C#N)c1
> 10 µM

* * *

Test system: 994946-033-R-J1-PDC complex spheroid viability
Experiment: Anticancer human tumor 994946-033-R-J1-PDC cell line growth inhibition [POLQ];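 also: spheroids exposed to drugs for 7 days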;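 as to viability, T/C: 100% = DMSO vehicle treated spheroids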
Settings: second compound 1 µM; first compound 0.0316 µM; stronger effect = lower value
assay.metric: viability, T/C (%)
Give just the number in %; leave the unit off.

Some solved entries appear below for comparison.
compound	unit.abbrev	viability, T/C
COc1cccc2c1C(=O)c1c(O)c3c(c(O)c1C2=O)CC(O)(C(=O)CO)CC3OC1CC(N)C(O)C(C)O1 (stereo unspecified) + Nc1ccc(C#CCN(C(=O)Cc2ncc(C(F)(F)F)cc2C(F)(F)F)c2ccc(F)cc2)nn1	%	47.9
CNCc1ccc(-c2[nH]c3cc(F)cc4c3c2CCNC4=O)cc1 + COC1C(OC(N)=O)C(O)C(Oc2ccc3c(O)c(NC(=O)c4ccc(O)c(CC=C(C)C)c4)c(=O)oc3c2C)OC1(C)C	%	107
O=c1[nH]cc(F)c(=O)[nH]1 + Nc1ccc(C#CCN(C(=O)Cc2ncc(C(F)(F)F)cc2C(F)(F)F)c2ccc(F)cc2)nn1	%	100
O=C(c1cc(Cc2n[nH]c(=O)c3ccccc23)ccc1F)N1CCN(C(=O)C2CC2)CC1 + Nc1ccc(C#CCN(C(=O)Cc2ncc(C(F)(F)F)cc2C(F)(F)F)c2ccc(F)cc2)nn1	%	78.9
CC1COCCN1c1cc(-c2ccnn2C)c2ccnc(-c3ccn[nH]3)c2n1 (stereo unspecified) + Cc1cccc(N(C)C(=O)C2C(O)CCN2c2nc(C)cc(C(F)(F)F)c2C#N)c1	%	63.4

State its viability, T/C: COc1cc(C2c3cc4c(cc3C(OC3OC5COC(C)OC5C(O)C3O)C3COC(=O)C23)OCO4)cc(OC)c1O (stereo unspecified) + Nc1ccc(C#CCN(C(=O)Cc2ncc(C(F)(F)F)cc2C(F)(F)F)c2ccc(F)cc2)nn1
111

* * *

Tested on: 994946-033-R-J1-PDC complex spheroid viability
Assay: Anticancer human tumor 994946-033-R-J1-PDC cell line growth inhibition [POLQ];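 also: spheroids exposed to drugs for 7 days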
Settings: curve of first compound; second compound 10 µM
Experimental: Multicellular complex tumor spheroid response to Polymerase (POL) inhibitors (novobiocin, ART-558, RP6685) in combination with a variety of drugs and investigational agents in selected tumor cell lines The POL inhibitors (novobiocin, ART-558, and RP6685) were evaluated both individually and in combination with standard of care and investigational anticancer small molecules within a complex spheroid model of solid tumors. . […]
pIC50: −log10 of the molar value.
Please enter Y where pIC50 is greater than or equal to 6, and N where it is lower.

Is it the case that Nc1ccn(C2OC(CO)C(O)C2(F)F)c(=O)n1 (stereo not given) + COC1C(OC(N)=O)C(O)C(Oc2ccc3c(O)c(NC(=O)c4ccc(O)c(CC=C(C)C)c4)c(=O)oc3c2C)OC1(C)C has pIC50 reaching or exceeding 6?
Y

Is it the case that CCc1c2c(nc3ccc(O)cc13)-c1cc3c(c(=O)n1C2)COC(=O)[C@]3(O)CC + Cc1cccc(N(C)C(=O)C2C(O)CCN2c2nc(C)cc(C(F)(F)F)c2C#N)c1 has pIC50 reaching or exceeding 6?
Y

Is it the case that COc1cccc2c1C(=O)c1c(O)c3c(c(O)c1C2=O)CC(O)(C(=O)CO)CC3OC1CC(N)C(O)C(C)O1 (stereo not given) + Nc1ccc(C#CCN(C(=O)Cc2ncc(C(F)(F)F)cc2C(F)(F)F)c2ccc(F)cc2)nn1 has pIC50 reaching or exceeding 6?
Y

* * *

Test system: 994946-033-R-J1-PDC complex spheroid viability
Test: Anticancer human tumor 994946-033-R-J1-PDC cell line growth inhibition [POLQ];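 also: spheroids exposed to drugs for 7 days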;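 as to viability, T/C: 100% = DMSO vehicle treated spheroids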
Conditions: second compound 10 µM; first compound 0.0316 µM; stronger effect = lower value
Attribute: viability, T/C
Give just the number in %; leave the unit off.

compound	experimental.target	viability, T/C, %
COc1cc(C2c3cc4c(cc3C(OC3OC5COC(C)OC5C(O)C3O)C3COC(=O)C23)OCO4)cc(OC)c1O (configuration not stated) + Cc1cccc(N(C)C(=O)C2C(O)CCN2c2nc(C)cc(C(F)(F)F)c2C#N)c1	994946-033-R-J1-PDC complex spheroid viability	67.5

State its viability, T/C: Cn1ncnc1[C@H]1c2n[nH]c(=O)c3cc(F)cc(c23)N[C@@H]1c1ccc(F)cc1 + COC1C(OC(N)=O)C(O)C(Oc2ccc3c(O)c(NC(=O)c4ccc(O)c(CC=C(C)C)c4)c(=O)oc3c2C)OC1(C)C
78.4

State its viability, T/C: C=CC(=O)N1CCN(c2nc(=O)n(-c3c(C)ccnc3C(C)C)c3nc(-c4c(O)cccc4F)c(F)cc23)C(C)C1 (configuration not stated) + Cc1cccc(N(C)C(=O)C2C(O)CCN2c2nc(C)cc(C(F)(F)F)c2C#N)c1
84.7

State its viability, T/C: CC(C)n1c(=O)n(C)c2cnc3cc(F)c(-c4ccc(OCCCN5CCCCC5)nc4)cc3c21 + COC1C(OC(N)=O)C(O)C(Oc2ccc3c(O)c(NC(=O)c4ccc(O)c(CC=C(C)C)c4)c(=O)oc3c2C)OC1(C)C
76.1

* * *

System: 994946-033-R-J1-PDC complex spheroid viability
Assay: Anticancer human tumor 994946-033-R-J1-PDC cell line growth inhibition [POLQ];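 also: spheroids exposed to drugs for 7 days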;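 as to viability, T/C: 100% = DMSO vehicle treated spheroids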
Settings: second compound 0.0316 µM; first compound 0.316 µM; stronger effect = lower value
assay.metric: viability, T/C (%)
Give just the number in %; leave the unit off.

Some solved entries appear below for comparison.
compound	viability, T/C [%]
Nc1ccn(C2OC(CO)C(O)C2(F)F)c(=O)n1 (configuration not stated) + Cc1cccc(N(C)C(=O)C2C(O)CCN2c2nc(C)cc(C(F)(F)F)c2C#N)c1	4.88
CCCS(=O)(=O)Nc1ccc(F)c(C(=O)c2c[nH]c3ncc(-c4ccc(Cl)cc4)cc23)c1F + Nc1ccc(C#CCN(C(=O)Cc2ncc(C(F)(F)F)cc2C(F)(F)F)c2ccc(F)cc2)nn1	102
COc1cc(C2c3cc4c(cc3C(OC3OC5COC(C)OC5C(O)C3O)C3COC(=O)C23)OCO4)cc(OC)c1O (configuration not stated) + Nc1ccc(C#CCN(C(=O)Cc2ncc(C(F)(F)F)cc2C(F)(F)F)c2ccc(F)cc2)nn1	68.8
CC1COCCN1c1cc(C2(S(C)(=N)=O)CC2)nc(-c2ccnc3[nH]ccc23)n1 (configuration not stated) + Nc1ccc(C#CCN(C(=O)Cc2ncc(C(F)(F)F)cc2C(F)(F)F)c2ccc(F)cc2)nn1	76.2
O=c1[nH]cc(F)c(=O)[nH]1 + COC1C(OC(N)=O)C(O)C(Oc2ccc3c(O)c(NC(=O)c4ccc(O)c(CC=C(C)C)c4)c(=O)oc3c2C)OC1(C)C	113
CC1COCCN1c1cc(-c2ccnn2C)c2ccnc(-c3ccn[nH]3)c2n1 (configuration not stated) + Cc1cccc(N(C)C(=O)C2C(O)CCN2c2nc(C)cc(C(F)(F)F)c2C#N)c1	13

Now look at this entry.
Report its viability, T/C with 994946-033-R-J1-PDC complex spheroid viability as the test system: CCc1cc2c(N3CCc4c(cc(Cn5ccnc5)cc4-c4cn(C)nc4C(F)(F)F)C3=O)cc(C)nc2c(OC)n1 + Nc1ccc(C#CCN(C(=O)Cc2ncc(C(F)(F)F)cc2C(F)(F)F)c2ccc(F)cc2)nn1
72.6

* * *

Test system: 994946-033-R-J1-PDC complex spheroid viability
Experiment: Anticancer human tumor 994946-033-R-J1-PDC cell line growth inhibition [POLQ];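 also: spheroids exposed to drugs for 7 days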
Details: curve of first compound; second compound 0.316 µM
assay.metric: IC50

Some solved entries appear below for comparison.
compound	experimental.target	IC50
CC(=O)O[C@H]1C(=O)[C@@]2(C)[C@H]([C@H](OC(=O)c3ccccc3)[C@]3(O)C[C@H](OC(=O)[C@H](O)[C@@H](NC(=O)c4ccccc4)c4ccccc4)C(C)=C1C3(C)C)[C@]1(OC(C)=O)CO[C@@H]1C[C@@H]2O + Cc1cccc(N(C)C(=O)C2C(O)CCN2c2nc(C)cc(C(F)(F)F)c2C#N)c1	994946-033-R-J1-PDC complex spheroid viability	< 0.00949 µM
CCc1cc2c(N3CCc4c(cc(Cn5ccnc5)cc4-c4cn(C)nc4C(F)(F)F)C3=O)cc(C)nc2c(OC)n1 + Nc1ccc(C#CCN(C(=O)Cc2ncc(C(F)(F)F)cc2C(F)(F)F)c2ccc(F)cc2)nn1	994946-033-R-J1-PDC complex spheroid viability	> 10 µM

Now look at this entry.
State its IC50: CCc1cc2c(N3CCc4c(cc(Cn5ccnc5)cc4-c4cn(C)nc4C(F)(F)F)C3=O)ccnc2c(OC)n1 + COC1C(OC(N)=O)C(O)C(Oc2ccc3c(O)c(NC(=O)c4ccc(O)c(CC=C(C)C)c4)c(=O)oc3c2C)OC1(C)C
> 10 µM
